# targetOrTestSystem: T1, hAMY3R (human, UniProt P30988)
# T1 sequence 1: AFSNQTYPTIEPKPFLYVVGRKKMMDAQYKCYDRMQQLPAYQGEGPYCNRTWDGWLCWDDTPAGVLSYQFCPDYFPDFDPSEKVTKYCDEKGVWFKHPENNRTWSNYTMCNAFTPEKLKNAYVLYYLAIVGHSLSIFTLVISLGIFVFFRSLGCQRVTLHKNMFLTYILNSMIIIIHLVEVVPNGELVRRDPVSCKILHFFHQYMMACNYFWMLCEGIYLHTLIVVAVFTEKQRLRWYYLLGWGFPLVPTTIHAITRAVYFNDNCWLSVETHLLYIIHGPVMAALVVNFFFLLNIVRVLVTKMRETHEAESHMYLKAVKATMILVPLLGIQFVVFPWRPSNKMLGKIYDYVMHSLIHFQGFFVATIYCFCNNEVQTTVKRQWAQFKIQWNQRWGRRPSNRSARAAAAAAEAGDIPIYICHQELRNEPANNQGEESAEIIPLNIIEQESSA
# T1 sequence 2: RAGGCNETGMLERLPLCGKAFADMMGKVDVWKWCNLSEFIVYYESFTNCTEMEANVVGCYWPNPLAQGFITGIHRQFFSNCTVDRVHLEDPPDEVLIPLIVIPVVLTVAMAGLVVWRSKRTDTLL
# methodSummary: cell-based or functional assay
Bridge positions count the residues as written; N and C are the ends. Square brackets hold non-standard residues; d marks the D form. Ends that are not written are not given here. Hyp = O=C(O)[C@@H]1C[C@@H](O)CN1
Consider the following binders and their measured hAMY3R EC50 (cAMP) readings.

>  <binder>
KCNTATCTVQRLAEQIYQFTDKDKDNVAPPYNEGSNG[Hyp]-NH2 (disulfide 2-7 (inferred); ends not checked) [SEQ ID NO: 44]

>  <unitSymbol>
nM

>  <hAMY3R EC50 (cAMP)>
0.01

$$$$
>  <binder>
GCRTGTCTVQWLAHQIYQFTDKDKDNVAPRSNVGPQG[Hyp]-NH2 (disulfide 2-7 (inferred); ends not checked) [SEQ ID NO: 342]

>  <unitSymbol>
nM

>  <hAMY3R EC50 (cAMP)>
0.054

$$$$
>  <binder>
KCNTATCTVQRLAHQAYQFTDKDKDNVAPPTNVGSNG[Hyp]-NH2 (disulfide 2-7 (inferred); ends not checked) [SEQ ID NO: 210]

>  <unitSymbol>
nM

>  <hAMY3R EC50 (cAMP)>
0.137

$$$$
>  <binder>
KCNTATCTVQRLAHQIAQFTDKDKDNVAPPTNVGSNG[Hyp]-NH2 (disulfide 2-7 (inferred); ends not checked) [SEQ ID NO: 14]

>  <unitSymbol>
nM

>  <hAMY3R EC50 (cAMP)>
0.007

$$$$

// data source = patent US12139520B2
